# Target Under Test: CSP1 (Chilo suppressalis)
# Sequence (V9PY22 18-122): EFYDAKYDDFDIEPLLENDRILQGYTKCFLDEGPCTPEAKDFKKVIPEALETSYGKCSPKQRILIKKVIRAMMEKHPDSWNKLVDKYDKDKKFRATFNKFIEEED
# Assay type: binding
# Run Parameters: read-out: CSP1 Ki; competitive binding with 1-NPN; listed as laurinaldehyde
Measured Attribute: Ki

Query string: Enter measured Ki, system CSP1 (Chilo suppressalis), for the compound shown: `CCCCCCCCCCCC=O`
Result string: ≤ 10 µM

====

# Target Under Test: CSP2
# Type: binding, Chilo suppressalis
# Run Parameters: read-out: CSP2 Ki; competitive binding with 1-NPN; listed as 2-heptanol
Measured Attribute: Ki

Query string: Identify measured Ki corresponding to CCCCCC(C)O (stereo not shown)
Result string: ≤ 10 µM

====

# Target Under Test: CSP3 (Chilo suppressalis)
# Sequence (V9PY40 19-126): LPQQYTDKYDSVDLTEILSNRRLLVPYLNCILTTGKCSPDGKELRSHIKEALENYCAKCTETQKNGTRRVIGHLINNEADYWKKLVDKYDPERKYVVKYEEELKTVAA
# Type: binding
# Run Parameters: pH 7.4, read-out: CSP3 Intensity %
Entries are sorted into classes by activity at 30 µM as follows: low (below 70%), moderate (70% to below 80%), high (80% or more)

Worked set:
1. CCCCC/C=C\C/C=C\CCCCCCCC(=O)O; high
2. CC1=CC[C@H](C(C)C)C=C1; high
3. CCCCCCCC/C=C\CCCCCCCC(=O)O; high
4. CCCCCCCCCCCCCCCC(=O)O; high
5. OCc1ccccc1; high

Query string: Band assignment needed for `CCCCCCO` please.
Result string: low

Query string: Band assignment needed for `CC=CC=CCO` please.
Result string: low

Query string: Band assignment needed for CCCCCC(C)O (centres unmarked) please.
Result string: high

Query string: Band assignment needed for `CCCCCCCCCCCC(C)=O` please.
Result string: moderate

Query string: Band assignment needed for `CCCCCCCCCCCCCC(C)=O` please.
Result string: low

Query string: Band assignment needed for `O=Cc1ccccc1` please.
Result string: low

Query string: Band assignment needed for `CCCCCCCCC=O` please.
Result string: moderate

Query string: Band assignment needed for C[C@@H]1CC[C@H]2C(C)(C)[C@H]3C[C@@]12CC[C@@]3(C)O [(+)-Cedrol] please.
Result string: low
